# experimental_system: Biotinylated murine soluble TWEAK (amino acids 81-225 of SEQ ID NO: 61) (murine) (UniProt O54907)
# measurement_protocol: Biacore SPR, biotinylated murine soluble TWEAK on SA sensor, antibody as analyte, 37 C
Give measured t/2 diss for each item. Keep answers brief.
The figure you give is taken to be in min; do not add the unit.

What does the data say about its t/2 diss? Entry: Antibody 27 (antibody, V domains shown, also called humanized 305 variant 305-LC2 / 305-HC4) VH: QVQLVQSGAEVKKPGSSVKVSCKASGFDFSTYYMSWVRQAPGQGLEWMGTVYVRQGTTYYASWLNGRVTITADESTSTAYMELSSLRSEDTAVYYCARGGYNYDDAFVIWGQGTLVTVSS VL: DIQMTQSPSSVSASVGDRVTITCQASQNIYSNLAWYQQKPGKAPKLLIYTASYLASGVPSRFSGSGSGTDYTLTISSLQPEDFATYYCQTAYYNSRPDTVAFGGGTKVEIK 19

Now the same for Antibody 32 (antibody, V domains shown, Humanized variant of antibody 305; also called humanized 305 variant 305-LC6 / 305-HC8) VH: EVQLLESGGGLVQPGGSLRLSCAASGFDFSTYYMSWVRQAPGKGLEWVSTVYVRQGTTYYASWLNGRFTISRDNSKNTLDLQMNSLRAEDTAVYYCAKGGYNYDDAFVIWGQGTLVTVSS VL: DIQMTQSPSTLSASVGDRVTITCQASQNIYSNLAWYQQKPGKAPKLLIYTASYLASGVPSRFSGSGSGTEFTLTISSLQPDDFATYYCQTAYYNSRPDTVAFGGGTKVEIK 20

Now the same for Antibody 28 (antibody, V domains shown, Humanized variant of antibody 305; also called humanized 305 variant 305-LC2 / 305-HC7) VH: EVQLLESGGGLVQPGGSLTLSCAASGFDFSTYYMSWVRQAPGKGLEWVSTVYVRQGTTYYASWLNGRFTISRDNSKNTLYLQMNSLRAEDTAVYYCAKGGYNYDDAFVIWGQGTLVTVSS VL: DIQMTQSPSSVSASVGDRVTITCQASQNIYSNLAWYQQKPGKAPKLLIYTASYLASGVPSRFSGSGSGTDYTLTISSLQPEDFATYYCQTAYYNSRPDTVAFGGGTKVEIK 17

Now the same for Antibody 29 (antibody, V domains shown, Humanized variant of antibody 305; also called humanized 305 variant 305-LC2 / 305-HC8) VH: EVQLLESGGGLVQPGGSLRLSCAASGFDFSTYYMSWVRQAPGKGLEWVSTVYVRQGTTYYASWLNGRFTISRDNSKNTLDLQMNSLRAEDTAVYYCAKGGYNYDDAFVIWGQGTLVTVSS VL: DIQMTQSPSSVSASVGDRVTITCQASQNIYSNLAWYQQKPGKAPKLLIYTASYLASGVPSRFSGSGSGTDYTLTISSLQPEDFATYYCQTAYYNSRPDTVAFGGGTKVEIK 21

Now the same for Antibody 31 (antibody, V domains shown, Humanized variant of antibody 305; also called humanized 305 variant 305-LC4 / 305-HC7) VH: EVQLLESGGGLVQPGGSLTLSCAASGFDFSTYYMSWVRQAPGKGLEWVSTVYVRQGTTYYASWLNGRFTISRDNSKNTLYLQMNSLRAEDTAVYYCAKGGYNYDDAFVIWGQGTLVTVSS VL: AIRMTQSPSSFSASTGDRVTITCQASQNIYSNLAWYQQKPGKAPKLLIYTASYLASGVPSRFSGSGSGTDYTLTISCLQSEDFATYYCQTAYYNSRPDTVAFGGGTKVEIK 19
